Molecular target: human prostanoid IP receptor (Homo sapiens)
Construct: expressed in transfected cells
Sequence (P43119 whole entry): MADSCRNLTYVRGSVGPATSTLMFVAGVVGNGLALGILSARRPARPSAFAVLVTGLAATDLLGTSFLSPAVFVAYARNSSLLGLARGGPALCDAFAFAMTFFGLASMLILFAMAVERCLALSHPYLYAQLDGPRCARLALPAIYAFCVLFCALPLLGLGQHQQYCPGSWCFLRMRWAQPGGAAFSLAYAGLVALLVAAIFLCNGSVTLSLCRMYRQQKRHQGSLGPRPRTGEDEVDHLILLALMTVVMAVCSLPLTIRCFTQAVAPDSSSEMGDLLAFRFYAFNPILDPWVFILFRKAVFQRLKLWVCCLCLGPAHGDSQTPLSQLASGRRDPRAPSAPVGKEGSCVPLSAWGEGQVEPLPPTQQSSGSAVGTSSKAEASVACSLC
Assay: FLIPR Ca2+ signaling PG antagonist assay, IP stable cell line
Assay type: cell-based
Settings: HEK-293 EBNA cells, human recombinant IP, no exogenous G-protein; standard agonist Cicaprost
For each record, write down the corresponding Kb.
Answers are plain numbers, in nM.

[[record]]
record_smiles = "CC(C)COc1ccc(Cl)cc1Cn1ncc2c(C(=O)O)cccc21"
assay_system = "human prostanoid IP receptor (Homo sapiens)"
observed_measurement = 200

[[record]]
record_smiles = "CCC(CC)COc1ccc(Cl)cc1Cn1ncc2cc(C(=O)O)ccc21"
assay_system = "human prostanoid IP receptor (Homo sapiens)"
observed_measurement = 1100


--- query ---
**Q:** Item under review: CCC(CC)COc1ccc(Cl)cc1Cn1nc(C)c2cc(C(=O)O)ccc21 . Reported Kb?
**A:** 500
